Target: T1, human NMI (N-myc Interacting protein), recombinant protein (human, UniProt Q13287 1-307, limits assumed)
T1 construct: Gene ID: 9111; also called hNMI; antigen
T1 sequence (looked up): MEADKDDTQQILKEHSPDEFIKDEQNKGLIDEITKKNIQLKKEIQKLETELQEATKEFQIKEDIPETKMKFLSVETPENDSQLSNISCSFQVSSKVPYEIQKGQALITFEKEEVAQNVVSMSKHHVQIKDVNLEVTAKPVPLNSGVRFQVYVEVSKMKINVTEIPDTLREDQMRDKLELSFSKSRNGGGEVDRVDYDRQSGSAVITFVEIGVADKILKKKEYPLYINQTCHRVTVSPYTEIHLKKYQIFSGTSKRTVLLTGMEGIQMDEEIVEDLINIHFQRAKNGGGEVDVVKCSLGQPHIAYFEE
Experiment: sandwich ELISA; detection 94C4-1-biotin 0.5µg/mL; hNMI 1,562.500 pg/mL
Endpoint Label: OD450 (OD450)
# value in OD450; strip the unit string

{"Binder": "monoclonal antibody 39B4 (antibody, V domains shown, Rabbit monoclonal antibody; also called 39B4-1) VH: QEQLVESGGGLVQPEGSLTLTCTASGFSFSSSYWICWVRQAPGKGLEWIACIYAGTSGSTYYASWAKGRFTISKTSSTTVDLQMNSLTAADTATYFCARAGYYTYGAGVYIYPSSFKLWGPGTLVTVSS VL: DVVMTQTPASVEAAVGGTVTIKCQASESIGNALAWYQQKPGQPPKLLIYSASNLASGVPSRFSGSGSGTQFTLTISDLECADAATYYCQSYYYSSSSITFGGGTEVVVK", "Experimental Result": 0.593}

get_value(item= monoclonal antibody 98G10 (antibody, V domains shown, Rabbit monoclonal antibody) VH: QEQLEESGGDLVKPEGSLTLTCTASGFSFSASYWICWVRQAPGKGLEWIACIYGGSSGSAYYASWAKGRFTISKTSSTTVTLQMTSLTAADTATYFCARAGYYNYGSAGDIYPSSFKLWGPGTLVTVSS VL: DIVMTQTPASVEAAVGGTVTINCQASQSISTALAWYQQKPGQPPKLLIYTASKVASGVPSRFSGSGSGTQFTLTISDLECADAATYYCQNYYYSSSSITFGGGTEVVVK , readout=OD450) returns 0.596

Recorded result, monoclonal antibody 240B10-1 (antibody, V domains shown, Rabbit monoclonal antibody) VH: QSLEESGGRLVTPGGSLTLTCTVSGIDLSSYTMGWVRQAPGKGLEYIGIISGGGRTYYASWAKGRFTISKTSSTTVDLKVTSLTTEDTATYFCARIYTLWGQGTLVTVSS VL: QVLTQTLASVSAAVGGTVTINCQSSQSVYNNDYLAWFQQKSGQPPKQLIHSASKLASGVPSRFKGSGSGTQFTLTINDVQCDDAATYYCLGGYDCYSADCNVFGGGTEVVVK , OD450: 0.907
